TGI reference
Test system: MOLT-4 leukemia
experiment-notes: NCI tumour cell line growth inhibition, 48 h

Here is how some molecules turned out for TGI.
GET /values?readout=TGI&item= CCOC(=O)c1cn(CC)c(=O)n2c1nc1ccccc12
> 100 µM

GET /values?readout=TGI&item= Cc1ccc(N=N/C(=N/NC(=O)c2ccccc2)c2ccc(N(CCC#N)CCC#N)cc2C)cc1
> 100 µM

GET /values?readout=TGI&item= CCOC(=O)c1c2c(n(-c3ccc(C)cc3)c1C)-c1ccccc1C(=O)C2(C(=O)OCC)C(=O)OCC
> 4.64 µM

New cases:
GET /values?readout=TGI&item= Clc1ccc(C=Nc2ccc(Oc3ccc(Cl)cc3)c(Cl)c2)cc1
> 100 µM

GET /values?readout=TGI&item= C[C@@H]1CC[C@]2(C)C3(C)CC[C@]2(OC3=O)[C@@]12CC(c1ccoc1)OC2=O (stereo partly specified)
84.4 µM

GET /values?readout=TGI&item= CCOC(=O)c1ccc(N=Nc2ccc(N(CCC#N)CCC#N)cc2C)cc1
> 100 µM

GET /values?readout=TGI&item= Cc1cc(O)c(/C=N/C(N)=S)c(=O)o1
> 100 µM
